Source: ChEMBL document CHEMBL2424622

- target under test: Serine/threonine-protein kinase PLK4 (Homo sapiens) (UniProt O00444)
- Sequence (O00444 whole entry): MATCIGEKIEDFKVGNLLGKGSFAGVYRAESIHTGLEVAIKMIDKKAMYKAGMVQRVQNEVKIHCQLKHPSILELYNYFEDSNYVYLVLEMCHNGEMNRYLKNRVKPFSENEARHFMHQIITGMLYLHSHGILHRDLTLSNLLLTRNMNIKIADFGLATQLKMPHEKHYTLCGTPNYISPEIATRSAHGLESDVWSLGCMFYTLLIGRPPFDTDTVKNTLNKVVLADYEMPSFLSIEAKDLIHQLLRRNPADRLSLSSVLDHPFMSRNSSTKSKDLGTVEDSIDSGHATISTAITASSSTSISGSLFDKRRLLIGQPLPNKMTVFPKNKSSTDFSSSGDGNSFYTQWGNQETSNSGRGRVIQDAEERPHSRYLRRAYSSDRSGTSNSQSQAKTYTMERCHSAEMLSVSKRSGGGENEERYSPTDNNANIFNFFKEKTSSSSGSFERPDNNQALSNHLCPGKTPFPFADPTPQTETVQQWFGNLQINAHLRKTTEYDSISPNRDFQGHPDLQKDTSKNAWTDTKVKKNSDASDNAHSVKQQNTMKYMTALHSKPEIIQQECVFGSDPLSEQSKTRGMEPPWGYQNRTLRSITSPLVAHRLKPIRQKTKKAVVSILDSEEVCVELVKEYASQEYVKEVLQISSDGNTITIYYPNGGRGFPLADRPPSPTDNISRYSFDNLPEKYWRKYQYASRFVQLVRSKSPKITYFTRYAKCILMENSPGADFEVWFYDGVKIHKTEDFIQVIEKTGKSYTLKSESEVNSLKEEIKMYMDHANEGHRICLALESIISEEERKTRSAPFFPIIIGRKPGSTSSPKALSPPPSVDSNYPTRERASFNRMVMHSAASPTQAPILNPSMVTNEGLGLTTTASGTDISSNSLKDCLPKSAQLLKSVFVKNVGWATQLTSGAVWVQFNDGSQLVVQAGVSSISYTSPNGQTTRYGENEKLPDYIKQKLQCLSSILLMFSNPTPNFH
- procedure text: Competitive binding affinity to PLK4 (unknown origin) at 10 uM in presence of ATP relative to control
quantity: inhibition (%)
Your answer is read as %, so omit the unit and give the number.

Take a look at these entries with their results.
O=C([C@H]1CC[C@H](Nc2nccc(-n3nnc4ccccc43)n2)CC1)N1CCOCC1 = 71
O[C@H]1CC[C@H](Nc2nccc(-c3n[nH]c4ccccc34)n2)CC1 = 100

Which measured inhibition value corresponds to O[C@H]1CC[C@H](Nc2nccc(-n3ncc4ccccc43)n2)CC1 ? 63

* * *

- procedure text: Oral bioavailability in Hanover-Wistar rat at 2 mg/kg
- Type: ADME, organism-based
- protocol conditions: in vivo
quantity: bioavailability (%)
Your answer is read as %, so omit the unit and give the number.

Which measured bioavailability value corresponds to CS(=O)(=O)CCCOc1cccc2c1ccn2-c1ccnc(N[C@H]2CC[C@H](C(=O)N3CCC(O)CC3)CC2)n1 ? 7

* * *

- target under test: Serine/threonine-protein kinase 38-like (Homo sapiens)
- procedure text: Competitive binding affinity to NDR2 (unknown origin) at 10 uM in presence of ATP relative to control
Below, each entry is listed with its recorded inhibition.

Take a look at these entries with their results.
O[C@H]1CC[C@H](Nc2nccc(-n3ccc4ccccc43)n2)CC1 = < 50%
O[C@H]1CC[C@H](Nc2nccc(-c3n[nH]c4ccccc34)n2)CC1 = 72%
O[C@H]1CC[C@H](Nc2nccc(-n3ncc4ccccc43)n2)CC1 = < 50%

Please find the next molecule below.
Which measured inhibition value corresponds to O[C@H]1CC[C@H](Nc2nccc(-n3nnc4ccccc43)n2)CC1 ? < 50%

* * *

- target under test: Aurora kinase C (Homo sapiens) (UniProt Q9UQB9)
- Sequence (Q9UQB9 whole entry): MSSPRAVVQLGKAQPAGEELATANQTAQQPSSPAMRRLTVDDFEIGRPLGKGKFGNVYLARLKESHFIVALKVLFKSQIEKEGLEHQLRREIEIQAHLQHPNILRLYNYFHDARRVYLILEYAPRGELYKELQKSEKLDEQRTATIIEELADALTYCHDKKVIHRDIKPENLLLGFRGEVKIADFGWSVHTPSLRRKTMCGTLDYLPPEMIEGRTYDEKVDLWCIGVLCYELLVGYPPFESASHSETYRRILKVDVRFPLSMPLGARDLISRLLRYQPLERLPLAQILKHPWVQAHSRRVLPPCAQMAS
- procedure text: Competitive binding affinity to AURKC (unknown origin) at 10 uM in presence of ATP relative to control
quantity: inhibition

Take a look at these entries with their results.
O[C@H]1CC[C@H](Nc2nccc(-c3n[nH]c4ccccc34)n2)CC1 = 96%
O=C([C@H]1CC[C@H](Nc2nccc(-n3nnc4ccccc43)n2)CC1)N1CCOCC1 = < 50%
N[C@H]1CC[C@H](Nc2nccc(-n3nnc4ccccc43)n2)CC1 = 97%

Which measured inhibition value corresponds to O[C@H]1CC[C@H](Nc2nccc(-n3ccc4ccccc43)n2)CC1 ? < 50%

Which measured inhibition value corresponds to O[C@H]1CC[C@H](Nc2nccc(-n3ncc4ccccc43)n2)CC1 ? < 50%

Which measured inhibition value corresponds to O[C@H]1CC[C@H](Nc2nccc(-n3nnc4ccccc43)n2)CC1 ? < 50%

* * *

- target under test: Hepatocyte growth factor receptor (Homo sapiens) (UniProt P08581)
- Sequence (P08581 whole entry): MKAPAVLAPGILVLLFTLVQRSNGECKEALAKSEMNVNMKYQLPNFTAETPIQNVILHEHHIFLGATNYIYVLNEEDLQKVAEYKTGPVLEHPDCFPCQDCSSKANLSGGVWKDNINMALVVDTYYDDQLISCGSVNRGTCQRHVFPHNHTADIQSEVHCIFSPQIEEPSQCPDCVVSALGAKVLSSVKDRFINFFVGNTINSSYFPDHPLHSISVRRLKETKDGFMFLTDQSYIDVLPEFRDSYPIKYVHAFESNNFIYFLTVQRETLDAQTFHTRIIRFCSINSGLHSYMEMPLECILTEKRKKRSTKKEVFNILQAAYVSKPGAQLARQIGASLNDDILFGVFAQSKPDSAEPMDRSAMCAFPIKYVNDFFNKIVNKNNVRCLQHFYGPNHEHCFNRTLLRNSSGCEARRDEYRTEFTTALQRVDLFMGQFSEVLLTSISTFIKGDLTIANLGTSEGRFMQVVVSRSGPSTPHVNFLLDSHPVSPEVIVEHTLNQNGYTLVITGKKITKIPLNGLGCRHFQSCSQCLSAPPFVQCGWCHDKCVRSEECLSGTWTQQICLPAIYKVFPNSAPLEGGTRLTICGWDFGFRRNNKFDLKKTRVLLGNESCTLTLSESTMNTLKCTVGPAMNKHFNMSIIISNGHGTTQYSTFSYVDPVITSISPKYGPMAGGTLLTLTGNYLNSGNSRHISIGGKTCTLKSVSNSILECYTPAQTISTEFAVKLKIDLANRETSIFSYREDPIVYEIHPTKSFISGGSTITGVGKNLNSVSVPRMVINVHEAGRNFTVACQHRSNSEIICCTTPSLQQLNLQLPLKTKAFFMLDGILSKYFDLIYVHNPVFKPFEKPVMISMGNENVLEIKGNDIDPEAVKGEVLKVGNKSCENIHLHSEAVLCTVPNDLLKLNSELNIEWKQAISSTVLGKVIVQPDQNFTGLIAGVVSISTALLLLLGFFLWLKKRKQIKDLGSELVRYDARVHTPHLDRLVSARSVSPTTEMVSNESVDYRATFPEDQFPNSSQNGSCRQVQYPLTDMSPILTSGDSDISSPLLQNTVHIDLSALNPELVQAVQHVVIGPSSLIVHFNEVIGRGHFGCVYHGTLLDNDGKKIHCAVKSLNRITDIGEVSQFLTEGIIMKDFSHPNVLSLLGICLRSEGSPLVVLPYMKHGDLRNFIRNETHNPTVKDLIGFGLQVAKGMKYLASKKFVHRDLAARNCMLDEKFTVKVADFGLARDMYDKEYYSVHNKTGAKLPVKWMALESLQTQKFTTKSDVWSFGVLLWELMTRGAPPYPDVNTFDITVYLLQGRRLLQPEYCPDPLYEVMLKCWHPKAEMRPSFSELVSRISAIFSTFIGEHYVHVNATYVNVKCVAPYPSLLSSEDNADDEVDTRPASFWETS
- procedure text: Competitive binding affinity to MET (unknown origin) at 10 uM in presence of ATP relative to control
Below, each entry is listed with its recorded inhibition.
Your answer is read as %, so omit the unit and give the number.

O[C@H]1CC[C@H](Nc2nccc(-n3ccc4ccccc43)n2)CC1 = 93
O[C@H]1CC[C@H](Nc2nccc(-n3nnc4ccccc43)n2)CC1 = 97
O[C@H]1CC[C@H](Nc2nccc(-n3ncc4ccccc43)n2)CC1 = 96

Kindly state the measured inhibition obtained for O[C@H]1CC[C@H](Nc2nccc(-c3n[nH]c4ccccc34)n2)CC1 with Hepatocyte growth factor receptor (Homo sapiens) (UniProt P08581). 98

* * *

- target under test: Dual specificity protein kinase CLK4 (Homo sapiens)
- procedure text: Competitive binding affinity to CLK4 (unknown origin) at 10 uM in presence of ATP relative to control
Below, each entry is listed with its recorded inhibition.
Your answer is read as %, so omit the unit and give the number.

O[C@H]1CC[C@H](Nc2nccc(-c3n[nH]c4ccccc34)n2)CC1 = 100
O[C@H]1CC[C@H](Nc2nccc(-n3ccc4ccccc43)n2)CC1 = 95
N[C@H]1CC[C@H](Nc2nccc(-n3nnc4ccccc43)n2)CC1 = 100
O[C@H]1CC[C@H](Nc2nccc(-n3ncc4ccccc43)n2)CC1 = 99
O=C([C@H]1CC[C@H](Nc2nccc(-n3nnc4ccccc43)n2)CC1)N1CCOCC1 = 94

Please find the next molecule below.
Which measured inhibition value corresponds to O[C@H]1CC[C@H](Nc2nccc(-n3nnc4ccccc43)n2)CC1 ? 98

* * *

- target under test: Mitogen-activated protein kinase 12 (Homo sapiens)
- procedure text: Competitive binding affinity to p38-gamma (unknown origin) at 10 uM in presence of ATP relative to control
quantity: inhibition

Take a look at these entries with their results.
O[C@H]1CC[C@H](Nc2nccc(-n3ccc4ccccc43)n2)CC1 = < 50%
O=C([C@H]1CC[C@H](Nc2nccc(-n3nnc4ccccc43)n2)CC1)N1CCOCC1 = < 50%
O[C@H]1CC[C@H](Nc2nccc(-n3nnc4ccccc43)n2)CC1 = 96%
O[C@H]1CC[C@H](Nc2nccc(-n3ncc4ccccc43)n2)CC1 = < 50%
O[C@H]1CC[C@H](Nc2nccc(-c3n[nH]c4ccccc34)n2)CC1 = < 50%

Please find the next compound below.
Which measured inhibition value corresponds to N[C@H]1CC[C@H](Nc2nccc(-n3nnc4ccccc43)n2)CC1 ? < 50%

* * *

Below, each entry is listed with its recorded inhibition.
- target under test: Mitogen-activated protein kinase kinase kinase 11 (Homo sapiens)
- procedure text: Competitive binding affinity to MLK3 (unknown origin) at 10 uM in presence of ATP relative to control

Take a look at these entries with their results.
O[C@H]1CC[C@H](Nc2nccc(-n3nnc4ccccc43)n2)CC1 = < 50%
O[C@H]1CC[C@H](Nc2nccc(-n3ccc4ccccc43)n2)CC1 = < 50%
O[C@H]1CC[C@H](Nc2nccc(-n3ncc4ccccc43)n2)CC1 = < 50%

Please find the next compound below.
Which measured inhibition value corresponds to O[C@H]1CC[C@H](Nc2nccc(-c3n[nH]c4ccccc34)n2)CC1 ? 88%

* * *

Below, each entry is listed with its recorded inhibition.
- Test system: Mast/stem cell growth factor receptor Kit (Homo sapiens), P10721 [V559D]
- Sequence (P10721 whole entry V559D): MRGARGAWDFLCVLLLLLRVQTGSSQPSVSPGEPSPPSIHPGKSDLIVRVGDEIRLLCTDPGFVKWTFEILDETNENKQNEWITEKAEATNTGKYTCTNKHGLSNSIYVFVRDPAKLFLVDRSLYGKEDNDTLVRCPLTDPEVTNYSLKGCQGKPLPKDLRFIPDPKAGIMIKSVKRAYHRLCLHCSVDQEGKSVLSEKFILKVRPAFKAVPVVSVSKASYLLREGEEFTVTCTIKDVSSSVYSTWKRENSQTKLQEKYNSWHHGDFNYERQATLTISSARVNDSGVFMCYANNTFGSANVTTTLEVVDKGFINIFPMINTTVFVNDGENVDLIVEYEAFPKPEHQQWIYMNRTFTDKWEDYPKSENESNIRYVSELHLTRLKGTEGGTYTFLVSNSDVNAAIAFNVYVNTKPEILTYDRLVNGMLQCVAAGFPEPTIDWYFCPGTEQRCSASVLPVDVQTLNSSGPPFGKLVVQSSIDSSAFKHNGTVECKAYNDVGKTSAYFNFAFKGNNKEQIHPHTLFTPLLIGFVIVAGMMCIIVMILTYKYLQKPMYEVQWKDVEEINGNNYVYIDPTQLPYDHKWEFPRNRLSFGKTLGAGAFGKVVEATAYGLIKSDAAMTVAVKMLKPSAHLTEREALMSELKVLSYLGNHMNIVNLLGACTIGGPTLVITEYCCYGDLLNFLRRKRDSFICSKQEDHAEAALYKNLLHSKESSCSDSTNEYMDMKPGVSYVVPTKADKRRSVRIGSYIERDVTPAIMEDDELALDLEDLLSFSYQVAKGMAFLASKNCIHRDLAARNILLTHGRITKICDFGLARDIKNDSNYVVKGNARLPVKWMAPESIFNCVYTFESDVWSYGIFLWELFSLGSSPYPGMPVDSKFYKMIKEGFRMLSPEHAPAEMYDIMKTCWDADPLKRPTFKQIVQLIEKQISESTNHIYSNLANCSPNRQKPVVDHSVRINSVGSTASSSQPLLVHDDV
- procedure text: Competitive binding affinity to KIT V559D mutant (unknown origin) at 10 uM in presence of ATP relative to control
Your answer is read as %, so omit the unit and give the number.

Take a look at these entries with their results.
O[C@H]1CC[C@H](Nc2nccc(-n3ccc4ccccc43)n2)CC1 = 73
O[C@H]1CC[C@H](Nc2nccc(-n3nnc4ccccc43)n2)CC1 = 91
O[C@H]1CC[C@H](Nc2nccc(-c3n[nH]c4ccccc34)n2)CC1 = 99

Please find the next compound below.
Which measured inhibition value corresponds to O[C@H]1CC[C@H](Nc2nccc(-n3ncc4ccccc43)n2)CC1 ? 92

* * *

- target under test: Serine/threonine-protein kinase MARK2 (Homo sapiens)
- procedure text: Competitive binding affinity to MARK2 (unknown origin) at 10 uM in presence of ATP relative to control
quantity: inhibition

O[C@H]1CC[C@H](Nc2nccc(-n3ccc4ccccc43)n2)CC1 = < 50%
O[C@H]1CC[C@H](Nc2nccc(-n3ncc4ccccc43)n2)CC1 = < 50%
O[C@H]1CC[C@H](Nc2nccc(-c3n[nH]c4ccccc34)n2)CC1 = 88%

Which measured inhibition value corresponds to O[C@H]1CC[C@H](Nc2nccc(-n3nnc4ccccc43)n2)CC1 ? < 50%

Which measured inhibition value corresponds to O=C([C@H]1CC[C@H](Nc2nccc(-n3nnc4ccccc43)n2)CC1)N1CCOCC1 ? < 50%

Which measured inhibition value corresponds to N[C@H]1CC[C@H](Nc2nccc(-n3nnc4ccccc43)n2)CC1 ? 78%

* * *

- target under test: Dual specificity testis-specific protein kinase 1 (Homo sapiens)
- procedure text: Competitive binding affinity to TESK1 (unknown origin) at 10 uM in presence of ATP relative to control
quantity: inhibition

Take a look at these entries with their results.
O[C@H]1CC[C@H](Nc2nccc(-n3ncc4ccccc43)n2)CC1 = 82%
O[C@H]1CC[C@H](Nc2nccc(-c3n[nH]c4ccccc34)n2)CC1 = 98%
O[C@H]1CC[C@H](Nc2nccc(-n3nnc4ccccc43)n2)CC1 = < 50%

Which measured inhibition value corresponds to O[C@H]1CC[C@H](Nc2nccc(-n3ccc4ccccc43)n2)CC1 ? 82%

* * *

- target under test: UniProt P36888
- Sequence (P36888 whole entry): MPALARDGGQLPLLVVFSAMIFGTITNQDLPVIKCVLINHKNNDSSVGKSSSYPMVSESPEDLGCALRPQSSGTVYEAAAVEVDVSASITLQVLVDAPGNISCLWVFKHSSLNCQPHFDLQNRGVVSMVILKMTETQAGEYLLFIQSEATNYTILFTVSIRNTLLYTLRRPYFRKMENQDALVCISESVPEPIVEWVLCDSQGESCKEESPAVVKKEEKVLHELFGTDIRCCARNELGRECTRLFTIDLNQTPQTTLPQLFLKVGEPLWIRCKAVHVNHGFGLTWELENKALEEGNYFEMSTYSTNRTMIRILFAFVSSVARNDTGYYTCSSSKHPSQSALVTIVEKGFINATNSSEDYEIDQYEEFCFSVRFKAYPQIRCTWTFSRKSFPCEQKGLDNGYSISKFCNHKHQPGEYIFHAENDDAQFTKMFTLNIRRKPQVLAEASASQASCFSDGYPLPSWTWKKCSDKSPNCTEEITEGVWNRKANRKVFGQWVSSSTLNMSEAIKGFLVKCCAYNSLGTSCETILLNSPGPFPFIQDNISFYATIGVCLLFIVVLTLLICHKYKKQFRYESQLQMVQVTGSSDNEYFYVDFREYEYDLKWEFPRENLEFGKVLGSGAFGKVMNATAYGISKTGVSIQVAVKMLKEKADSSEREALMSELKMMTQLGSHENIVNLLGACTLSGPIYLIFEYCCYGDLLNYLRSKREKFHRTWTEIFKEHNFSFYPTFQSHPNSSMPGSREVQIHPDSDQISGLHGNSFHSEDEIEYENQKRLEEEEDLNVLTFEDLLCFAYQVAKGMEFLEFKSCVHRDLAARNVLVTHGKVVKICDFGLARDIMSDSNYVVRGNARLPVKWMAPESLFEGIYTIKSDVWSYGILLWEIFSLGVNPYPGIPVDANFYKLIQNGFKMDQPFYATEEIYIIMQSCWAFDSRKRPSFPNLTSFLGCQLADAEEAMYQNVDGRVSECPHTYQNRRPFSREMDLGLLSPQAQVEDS
- procedure text: Competitive binding affinity to FLT3 (unknown origin) at 10 uM in presence of ATP relative to control
quantity: inhibition (%)
Your answer is read as %, so omit the unit and give the number.

O[C@H]1CC[C@H](Nc2nccc(-n3ccc4ccccc43)n2)CC1 = 85
N[C@H]1CC[C@H](Nc2nccc(-n3nnc4ccccc43)n2)CC1 = 92
O[C@H]1CC[C@H](Nc2nccc(-n3ncc4ccccc43)n2)CC1 = 95

Please find the next molecule below.
Which measured inhibition value corresponds to O[C@H]1CC[C@H](Nc2nccc(-n3nnc4ccccc43)n2)CC1 ? 88

* * *

Below, each entry is listed with its recorded inhibition.
- target under test: Membrane-associated tyrosine- and threonine-specific cdc2-inhibitory kinase (Homo sapiens)
- procedure text: Competitive binding affinity to PKMYT1 (unknown origin) at 10 uM in presence of ATP relative to control

O[C@H]1CC[C@H](Nc2nccc(-n3nnc4ccccc43)n2)CC1 = < 50%
O[C@H]1CC[C@H](Nc2nccc(-n3ccc4ccccc43)n2)CC1 = < 50%
N[C@H]1CC[C@H](Nc2nccc(-n3nnc4ccccc43)n2)CC1 = < 50%

Which measured inhibition value corresponds to O=C([C@H]1CC[C@H](Nc2nccc(-n3nnc4ccccc43)n2)CC1)N1CCOCC1 ? < 50%

Which measured inhibition value corresponds to O[C@H]1CC[C@H](Nc2nccc(-n3ncc4ccccc43)n2)CC1 ? < 50%

Which measured inhibition value corresponds to O[C@H]1CC[C@H](Nc2nccc(-c3n[nH]c4ccccc34)n2)CC1 ? 89%
